Reference source: patent US20260193326A1

STUDY_TARGET: AAV9 (adeno-associated virus serotype 9)
MEASUREMENT_PROTOCOL: SPR, AAV on CM5 chip
ENDPOINT_NAME: kon

**Q:** Given the entry A4-C1 (VHH) VQLQESGGGLVQPGGSLRLSCAASGSGFSINTMGWYRQAPGKQRELVATVTRDGSTNYADFVKGRFTISRDNAKNTVYLQMNSLRPEDTAVYYCHLDEVRESSWTTSNLWGQGTQVTVSSGGGGSGGGGSGGGGSVQLQESGGGLVQPGGSLRLSCAASGSGFSINTMGWYRQAPGKQRELVATVTRDGSTNYADFVKGRFTISRDNAKNTVYLQMNSLRPEDTAVYYCHLDEVRESSWTTSNLWGQGTQVTVSSGGGGSGGGGSGGGGSVQLQESGGGLVQPGGSLRLSCAASGSGFSINTMGWYRQAPGKQRELVATVTRDGSTNYADFVKGRFTISRDNAKNTVYLQMNSLRPEDTAVYYCHLDEVRESSWTTSNLWGQGTQVTVSS , report its measured kon.
**A:** 9690 M⁻¹ s⁻¹
